# Test system: A. fumigatus
# experimentNotes: In vitro antifungal activity, IC80 (Method B)
# Type: cell-based
# conditionsUsed: Aspergillus fumigatus, A. fumigatus CF1003; 1×10^4 cells/ml, 1-2 days, 27° C., 0.2% agar; read-out: Antifungal activity IC80
Counter-ions that a name gives are not always drawn.
propertyLabel: IC80

Q: State the recorded IC80 for this entry: CO[C@@H]1[C@@H](Cn2cncn2)[C@H](CCc2ccc(N3CCCC3)cc2)CCC1(C)C
A: > 200 µg/mL

Q: State the recorded IC80 for this entry: CO[C@@H]1[C@@H](Cn2cncn2)[C@H](CCc2ccc(C)cc2)CCC1(C)C
A: 20 µg/mL

Q: State the recorded IC80 for this entry: CCCCCCCCO[C@@H]1CCC(C)(C)[C@H](OC)[C@H]1NC(=O)CN [Example 54, trifluoroacetic acid salt]
A: 150 µg/mL

Q: State the recorded IC80 for this entry: COc1ccc(CC[C@@H]2CCC(C)(C)[C@H](OC)[C@H]2Cn2cncn2)cc1
A: > 200 µg/mL

Q: State the recorded IC80 for this entry: CCc1ccc(CC[C@@H]2CCC(C)(C)[C@H](OC)[C@H]2Cn2cncn2)cc1
A: > 200 µg/mL

Q: State the recorded IC80 for this entry: CO[C@@H]1[C@@H](Cn2cncn2)[C@H](CCc2ccc(OC(F)(F)F)cc2)CCC1(C)C
A: > 200 µg/mL

Q: State the recorded IC80 for this entry: COc1ccc(CC[C@@H]2CCC(C)(C)[C@H](OC)[C@H]2NC(=O)CN)cc1 [Example 55, trifluoroacetic acid salt]
A: > 200 µg/mL

###

# Tested on: C. neoformans
# experimentNotes: In vitro antifungal activity, IC80 (Method B)
# Format: cell-based
# conditionsUsed: Cryptococcus neoformans, pH 7, C. neoformans CY1059, 1×10^4 cells/ml, 1-2 days, 27° C., read-out: Antifungal activity IC80
Where a name gives a salt, the structure may show the parent alone.
Classify: yes when IC80 is strictly less than 4 µg/mL; no when IC80 is not.

Q: In plain terms, does CCc1ccc(CC[C@@H]2CCC(C)(C)[C@H](OC)[C@H]2Cn2cncn2)cc1 [Example 81] come in under 4 µg/mL for IC80?
A: yes

Q: In plain terms, does CO[C@@H]1[C@@H](Cn2cncn2)[C@H](CCc2ccc(F)cc2F)CCC1(C)C [Example 80] come in under 4 µg/mL for IC80?
A: no

Q: In plain terms, does CO[C@@H]1[C@@H](Cn2cncn2)[C@H](CCc2ccc(OC(F)(F)F)cc2)CCC1(C)C [Example 78] come in under 4 µg/mL for IC80?
A: no

Q: In plain terms, does CO[C@@H]1[C@@H](Cn2cncn2)[C@H](CCc2ccc(C(F)(F)F)cc2)CCC1(C)C [Example 77] come in under 4 µg/mL for IC80?
A: yes

Q: In plain terms, does CO[C@@H]1[C@@H](Cn2cncn2)[C@H](CCc2ccc(Cl)cc2)CCC1(C)C [Example 72] come in under 4 µg/mL for IC80?
A: no

Q: In plain terms, does CO[C@@H]1[C@@H](Cn2cncn2)[C@H](CCc2ccc(C)cc2)CCC1(C)C [Example 74] come in under 4 µg/mL for IC80?
A: yes

Q: In plain terms, does CCc1ccc(OC[C@@H]2CCC(C)(C)[C@H](OC)[C@H]2Cn2cncn2)cc1 [Example 83] come in under 4 µg/mL for IC80?
A: yes

Q: In plain terms, does COc1ccc(CC[C@@H]2CCC(C)(C)[C@H](OC)[C@H]2NC(=O)CN)cc1 [Example 55, trifluoroacetic acid salt] come in under 4 µg/mL for IC80?
A: no

Data provenance: patent US5719291A
